experimental system: human full length PIK3KA Wild-type (p110α/p85α complex) (Homo sapiens, UniProt P42336)
Construct: Recombinant, catalytically active human full length PIK3KA Wild-type and H1047R mutant were purchased as 1:1 complex; 6xHis (N); purchased EMD Millipore Sigma 14-602M
experiment: PI3K-alpha kinase (PIK3CA) biochemical activity, wild-type, ADP-Glo
condition label: PI3K-α (PIK3CA) biochemical, Soy PI lipid substrate
# IC50 per record follows

Answered examples (5):
>>> print(df.to_string())
                                   molecule  test_readout        meas_value
0  Cc1cc(C(C)Nc2ccc(C)nc2C(=O)O)c2oc(-c3ccccc3)c(C(F)(F)F)c(=O)c2c1 (stereo not drawn)          IC50          < 500 nM
1  Cc1cc([C@@H](C)Nc2ccccc2C(=O)O)c2oc(-c3ccc(-c4cn[nH]c4)cc3)cc(=O)c2c1          IC50   1000 to 5000 nM
2  Cc1cc([C@@H](C)Nc2cccnc2C(=O)O)c2oc(-c3ccccc3)c(C)c(=O)c2c1          IC50  5000 to 10000 nM
3  Cc1cc([C@@H](C)Nc2ccc(Cl)nc2C(=O)O)c2oc(-c3cccc(C#N)c3)c(C)c(=O)c2c1 [Example 115]          IC50          < 500 nM
4  COc1ccc(N[C@H](C)c2cc(C)cc3c(=O)c(C)c(-c4ccccc4)oc23)c(C(=O)O)n1          IC50    500 to 1000 nM

Measured IC50 (human full length PIK3KA Wild-type (p110α/p85α complex) (Homo sapiens, UniProt P42336)), entry `Cc1cc([C@@H](C)Nc2ccc(Cl)nc2C(=O)O)c2oc(-c3ccccc3)c(C(F)(F)F)c(=O)c2c1` : < 500 nM

Form field IC50 for item `Cc1cc([C@@H](C)Nc2ccccc2C(=O)O)c2oc(-c3cccc(-c4cc[nH]n4)c3)c(C)c(=O)c2c1` on human full length PIK3KA Wild-type (p110α/p85α complex) (Homo sapiens, UniProt P42336): 1000 to 5000 nM
